System: corn (Zea mays)
Experiment: Test A postemergence
Assay type: in vivo
Conditions: Postemergence, 125 g ai/ha; visual injury, 0 to 100 scale (0 no effect, 100 complete control), approx. 10 d
Answer each item with its documented Plant response rating, Corn.
One number for each entry.

Examples from the recorded data:
CC(C)Oc1cccc(C2CN(C)C(=O)C2C(=O)Nc2ccc(F)cc2F)c1 (stereo not drawn) = 50
Nc1cccc(C2CNC(=O)C2C(=O)Nc2cccc(F)c2F)c1 (stereo not drawn) = 0
O=C1NCC(c2cccnc2)C1C(=O)Nc1ccccc1C(F)(F)F (racemic) = 0
Cc1ccc(C2CNC(=O)C2C(=O)Nc2ccc(F)cc2F)cc1F (racemic) = 0

Fill in Plant response rating, Corn for each of the 2 compounds listed.
1. O=C1NCC(c2ccc(-c3ccccc3)cc2)C1C(=O)Nc1ccccc1C(F)(F)F (racemic)
2. Cc1cccc(C2CNC(=O)C2C(=O)Nc2ccccc2F)c1 (racemic)

Output line:
0
0

====

I'd appreciate it if you could supply pest or weed control at 500 g/ha values for the items below.
Test system: giant foxtail (Setaria faberii)
Assay: Test A preemergence
Type: in vivo
Settings: Setaria faberi, pre-emergence, 240 h, 500 g ai/ha, preemergence; 0 to 100 scale, 0 = no effect, 100 = complete control; read-out: Plant response rating, Foxtail, Giant
Param answer (str): number followed by unit.

Use the examples below as a reference point.
CN1C[C@H](c2cc(F)cc(F)c2)[C@@H](C(=O)Nc2c(F)cccc2F)C1=O = 100%
CN1C[C@H](c2ccc(C(F)(F)F)cc2)[C@@H](C(=O)Nc2ccccc2C2CC2)C1=O = 90%
Cc1ccc([C@H]2CN(C)C(=O)[C@@H]2C(=O)Nc2cccc(F)c2C)cc1C = 90%

I need pest or weed control at 500 g/ha for every entry listed below, if you could help.
1. CCc1cc(CC)cc([C@H]2CN(C)C(=O)[C@@H]2C(=O)Nc2ccccc2C(F)(F)F)c1
2. CCc1ccc([C@H]2CNC(=S)[C@@H]2C(=O)Nc2ccccc2SC)cc1
3. O=C1NC[C@H](c2cc(F)c(F)c(F)c2)[C@H]1C(=O)Nc1ccc(F)c(F)c1F

Output line:
["90%", "50%", "100%"]

====

Can you tell me plant injury at 125 g/ha for the items I'm about to list?
System: wheat (Triticum aestivum)
Experiment: Test A postemergence
Type: in vivo
Conditions: Triticum aestivum, post-emergence, 240 h, 125 g ai/ha, Postemergence, visual rating about 10 d after treatment; read-out: Wheat plant response rating (0 to 100 scale)
Give bare numbers, in %.

O=C1NCC(c2ccccc2)C1C(=O)Nc1ccc(C(F)(F)F)cc1 (stereo not shown) [Compound 1362] = 0
CN1C[C@H](c2ccc3c(c2)CCO3)[C@@H](C(=O)Nc2ccccc2F)C1=O [Compound 1321] = 20
COc1c([C@H]2CN(C)C(=O)[C@@H]2C(=O)Nc2ccccc2SC)cccc1C(F)(F)F [Compound 1340] = 0

Moving on to the next compound.
Input line: Dear colleague, I am looking for the recorded plant injury at 125 g/ha of the following compound: CN1C[C@H](c2ccc(C(F)(F)F)cc2)[C@@H](C(=O)Nc2cccc(C#N)c2F)C1=O [Compound 1381]
Output line: 30

====

System: pigweed (Amaranthus retroflexus)
Assay: Test A preemergence
Type: in vivo
Details: Amaranthus retroflexus, pre-emergence, 240 h, 500 g ai/ha, preemergence; 0 to 100 scale (0 no effect, 100 complete control); read-out: Plant response rating, Pigweed
assay.endpoint: pest or weed control at 500 g/ha (%)
Numbers only, in %.

O=C1NC[C@H](c2cncs2)[C@H]1C(=O)Nc1ccccc1F = 0

Look up pest or weed control at 500 g/ha for the entries below, preserving their order.
1. O=C1NCC(c2ccccc2)C1C(=O)Nc1cc(F)ccc1F (centres unmarked)
2. CN1C[C@H](c2ccc(C(F)(F)F)nc2)[C@@H](C(=O)Nc2ccc(F)c(F)c2F)C1=O

Output line:
0
100

Below are 2 compounds. Give each one its pest or weed control at 500 g/ha.
1. O=C1NCC(c2ccccc2)C1C(=O)Nc1ccc(C(F)(F)F)cc1 (centres unmarked)
2. O=C1NC[C@H](c2cncs2)[C@H]1C(=O)Nc1cccc(F)c1F

Output line:
1. 0
2. 0

====

Tested on: giant foxtail (Setaria faberi)
Experiment: Test G Post-Emergence Protocol
Type: in vivo
Details: Setaria faberi, post-emergence, 312 h, 15.625 g ai/ha, evaluated after 13 days (100=total damage to plant; 0=no damage to plant), read-out: Foxtail, Giant damage rating
Excerpt: Seeds of corn (Zea mays), giant foxtail (Setaria faberi), barnyardgrass (Echinochloa crus-galli), ivy-leaved morning glory (Ipomoea hederacea), redroot pigweed (Amaranthus retroflexus) and velvetleaf (Abutilon theophrasti) were sown in standard soil in pots. […]
assay.endpoint: pest or weed control at 15.625 g/ha (%)
Numbers only, in %.

CN1C[C@@H](c2ccc(C(F)(F)F)cc2)[C@H](C(=O)Nc2ccc(F)nc2)C1=O (racemic) = 0
CN1C[C@@H](c2cccc(I)c2)[C@H](C(=O)Nc2cccc(F)c2F)C1=O (racemic) = 60
Cc1cc(F)ncc1NC(=O)[C@H]1C(=O)N(C)C[C@@H]1c1ccc(C(F)(F)F)cc1 (racemic) = 10

Would you be so kind as to report pest or weed control at 15.625 g/ha for each listed record?
1. CN1C[C@@H](c2ccc(C(F)(F)F)cc2)[C@H](C(=O)Nc2ccc(Cl)nc2)C1=O (racemic)
2. Cc1c(F)cccc1NC(=O)[C@@H]1C(=O)N(C)C[C@H]1c1ccnc(OCC(F)(F)F)c1 (racemic)
3. CN1C[C@@H](c2ccc(C(F)(F)F)cc2)[C@H](C(=O)Nc2ccsc2)C1=O (racemic)
4. CN1C[C@H](c2cccc(C(F)(F)F)c2)[C@@H](C(=O)Nc2ccc3cccnc3n2)C1=O (racemic)

Output line:
1. 0
2. 40
3. 0
4. 0

State the recorded pest or weed control at 15.625 g/ha for every item in the following list.
1. Cc1ccc([C@@H]2CN(C)C(=O)[C@H]2C(=O)Nc2cccc(F)c2F)cc1Cl (racemic)
2. CN1C[C@H](c2ccc(F)c(C#N)c2)[C@@H](C(=O)Nc2ccccc2F)C1=O (racemic)
3. CCc1nnc(NC(=O)[C@@H]2C(=O)N(C)C[C@H]2c2ccc(C(F)(F)F)cc2)s1 (racemic)
4. CN1C[C@H](c2ccc(C(F)(F)F)cc2)[C@@H](C(=O)Nc2ncccc2C#N)C1=O (racemic)
5. C#Cc1ccccc1NC(=O)[C@H]1C(=O)N(C)C[C@@H]1c1ccc(C(F)(F)F)cc1 (racemic)

Output line:
70
30
0
0
0

For each listed entry, give its pest or weed control at 15.625 g/ha.
1. CN1C[C@H](c2ccc(C(C)(C)C#N)cc2)[C@@H](C(=O)Nc2ccccc2F)C1=O (racemic)
2. CN1C[C@H](c2ccc(C(F)(F)F)cc2)[C@@H](C(=O)Nc2cccc3nsnc23)C1=O (racemic)

Output line:
[0, 0]

====

Would you kindly list Plant response rating (scale of 0 to 100), Velvetleaf for each of these molecules?
Test system: velvetleaf (Abutilon theophrasti)
Assay: Test C preemergence
Format: in vivo
Conditions: 31 g ai/ha, 0 is no effect, 100 is complete control
One number for each entry.

Below: 3 molecules and their reported Plant response rating (scale of 0 to 100), Velvetleaf.
Cc1ccc(C2CN(C)C(=O)C2C(=O)Nc2ccccc2C(F)(F)F)cc1 (stereo not shown) = 20
Cc1ccc(C2CN(C)C(=O)C2C(=O)Nc2ccccc2F)cc1F (stereo not shown) = 15
Cc1ccc(C2CN(C)C(=O)C2C(=O)Nc2ccccc2S(C)(=O)=O)cc1 (stereo not shown) = 5

Input line: Given CC(C)Oc1cccc(C2CN(C)C(=O)C2C(=O)Nc2ccccc2S(C)(=O)=O)c1 (stereo not shown) , state its recorded Plant response rating (scale of 0 to 100), Velvetleaf.
Output line: 0

====

Tested on: velvetleaf (Abutilon theophrasti)
Test: Test G Post-Emergence Protocol
Type: in vivo
Settings: Abutilon theophrasti, post-emergence, 312 h, 250 g ai/ha, evaluated after 13 days, read-out: damage to plant, Velvetleaf (100=total damage to plant; 0=no damage to plant)
assay.endpoint: pest or weed control at 250 g/ha (%)
Give bare numbers, in %.

State recorded pest or weed control at 250 g/ha for all listed compounds.
1. CN1C[C@H](c2ccc(C(C)(C)C#N)cc2)[C@@H](C(=O)Nc2ccccc2F)C1=O (racemic) [Compound 1408]
2. CN1C[C@@H](c2ccc(C(F)(F)F)cc2)[C@H](C(=O)Nc2ncc(C(F)(F)F)s2)C1=O (racemic) [Compound 1504]
3. CN1C[C@@H](c2ccc(C(F)(F)F)cc2)[C@H](C(=O)Nc2ccc(Cl)cc2F)C1=O (racemic) [Compound 1602]
4. CN1C[C@@H](c2ccc(C(F)(F)F)cc2)[C@H](C(=O)Nc2cc(C(F)(F)F)no2)C1=O (racemic) [Compound 1511]

Output line:
1: 10; 2: 0; 3: 40; 4: 0

For each entry beneath this line, provide reported pest or weed control at 250 g/ha.
1. Cc1cnc(NC(=O)[C@@H]2C(=O)N(C)C[C@H]2c2ccc(C(F)(F)F)cc2)cn1 (racemic) [Compound 1648]
2. CN1C[C@H](c2ccc(C(F)F)cc2)[C@@H](C(=O)Nc2ccccc2F)C1=O (racemic) [Compound 1454]
3. CN1C[C@H](c2ccc(C(F)(F)F)cc2)[C@@H](C(=O)Nc2ccc(F)c(F)c2)C1=O (racemic) [Compound 1412]

Output line:
0
10
40

Values compiled from patent US12077503B2.
